Test system: human lung cancer strain NCI-H441
Assay type: cell-based
Where a SMILES comes first, the peptide text is derived from it. Bridges are numbered along the chain shown (N, C = ends). [ ]: non-standard residue; d: D form. The star is where a group is joined. hPhe(3-Cl-4-CF3) = N[C@@H](CCc1ccc(C(F)(F)F)c(Cl)c1)C(=O)O; NPrPhe(4-CF3) = CCCN[C@@H](Cc1ccc(C(F)(F)F)cc1)C(=O)O; NMeGly(cPent) = CN[C@H](C(=O)O)C1CCCC1; Pro(4,4-F2) = O=C(O)[C@@H]1CC(F)(F)CN1; Pro(4S-Me) = C[C@@H]1CN[C@H](C(=O)O)C1; cisHyp = O=C(O)[C@@H]1C[C@H](O)CN1; NMeD = CN[C@@H](CC(=O)O)C(=O)O; NMeL = CN[C@@H](CC(C)C)C(=O)O; Morpholide = C1CN(*)CCO1; NMeA = CN[C@@H](C)C(=O)O; Ac5c = NC1(C(=O)O)CCCC1; Aze = O=C(O)[C@@H]1CCN1; NEtG = CCNCC(=O)O; Sar = CNCC(=O)O

# compound, IC50, nM
measured = [
    ("CCCN1C(=O)CN(C)C(=O)CN(C)C(=O)[C@H]([C@@H](C)CC)NC(=O)[C@H](CC(C)C)N(C)C(=O)C[C@@H](C(=O)N2CCOCC2)N(C)C(=O)[C@H](C2CCCC2)N(C)C(=O)C2(CCCC2)NC(=O)CN(CC)C(=O)[C@H](CCc2ccc(C(F)(F)F)c(Cl)c2)NC(=O)CN(C)C(=O)[C@@H]1Cc1ccc(C(F)(F)F)cc1 [PP0144] ([NMeL]I[Sar][Sar][NPrPhe(4-CF3)][Sar][hPhe(3-Cl-4-CF3)][NEtG][Ac5c][NMeGly(cPent)][NMeD]-Morpholide; lactam N-11)", 18.3),
    ("CCCN1C(=O)CN(C)C(=O)CN(C)C(=O)[C@H]([C@@H](C)CC)NC(=O)[C@H](CC(C)C)N(C)C(=O)C[C@@H](C(=O)N2CCOCC2)N(C)C(=O)[C@H](C2CCCC2)N(C)C(=O)C2(CCCC2)NC(=O)[C@@H]2C[C@H](OCC)CN2C(=O)[C@H](CCc2ccc(C(F)(F)F)c(Cl)c2)NC(=O)CN(C)C(=O)[C@@H]1Cc1ccc(C(F)(F)F)cc1 [PP0243] ([NMeL]I[Sar][Sar][NPrPhe(4-CF3)][Sar][hPhe(3-Cl-4-CF3)][cisHyp](Et)[Ac5c][NMeGly(cPent)][NMeD]-Morpholide; lactam N-11)", 23.2),
    ("CCCN1C(=O)CN(C)C(=O)CN(CC)C(=O)[C@H]([C@@H](C)CC)NC(=O)[C@H](CC(C)C)N(C)C(=O)C[C@@H](C(=O)N2CCOCC2)NC(=O)[C@H](C2CCCC2)N(C)C(=O)C2(CCCC2)NC(=O)[C@@H]2CC(F)(F)CN2C(=O)[C@H](CCc2ccc(C(F)(F)F)c(Cl)c2)NC(=O)CN(C)C(=O)[C@@H]1Cc1ccc(C(F)(F)F)cc1 [PP0333] ([NMeL]I[NEtG][Sar][NPrPhe(4-CF3)][Sar][hPhe(3-Cl-4-CF3)][Pro(4,4-F2)][Ac5c][NMeGly(cPent)]D-Morpholide; lactam N-11)", 41.6),
    ("CCC[C@H]1C(=O)N[C@@H](C2CCCC2)C(=O)N(C)CC(=O)N(C)[C@H]2C/C=C\\CCN(C2=O)[C@@H](Cc2ccc(C)cc2)C(=O)N(C)CC(=O)N[C@@H](CCc2ccc(C(F)(F)F)c(OC)c2)C(=O)N2CC3(CC3)C[C@H]2C(=O)NC2(CC(C)(C)C2)C(=O)N(C)[C@@H](CC(C)(C)C)C(=O)N(C)[C@H](C(=O)N(C)C)CC(=O)N1C [PP3010]", 18.2),
    ("CCCN1C(=O)CN(C)C(=O)CN(CC)C(=O)[C@H]([C@@H](C)CC)NC(=O)[C@H](CC(C)C)N(C)C(=O)C[C@@H](C(=O)N2CCOCC2)N(C)C(=O)[C@H](C2CCCC2)N(C)C(=O)C2(CCCC2)NC(=O)[C@@H]2C[C@H](C)CN2C(=O)[C@H](CCc2ccc(C(F)(F)F)c(Cl)c2)NC(=O)CN(C)C(=O)[C@@H]1Cc1ccc(C(F)(F)F)cc1 [PP0451] ([NMeL]I[NEtG][Sar][NPrPhe(4-CF3)][Sar][hPhe(3-Cl-4-CF3)][Pro(4S-Me)][Ac5c][NMeGly(cPent)][NMeD]-Morpholide; lactam N-11)", 11.2),
    ("CC[C@H](C)[C@@H]1NC(=O)[C@H](CC2CCC2)N(C)C(=O)C[C@@H](C(=O)N(C)C)N(C)C(=O)[C@H](C2CCCC2)N(C)C(=O)C2(CCC2)N(C)C(=O)[C@@H]2C[C@@H](C)CN2C(=O)[C@H](CCc2cc(F)c(C(F)(F)F)c(F)c2)NC(=O)CN(C)C(=O)[C@H](Cc2ccc(C)cc2)N2CC/C=C\\C[C@@H](C2=O)N(C)C(=O)CN(C)C1=O [PP1803]", 7.6),
    ("CCO[C@@H]1C[C@H]2C(=O)NC3(CC(C)(C)C3)C(=O)N(C)[C@@H](C3CCCC3)C(=O)N3CCC[C@@H]3CC(=O)N(C)[C@@H](CC3CC3)C(=O)N[C@@H]([C@@H](C)CC)C(=O)N(C)CC(=O)N(C)[C@H]3C/C=C\\CCN(C3=O)[C@@H](Cc3ccc(C(F)(F)F)cc3)C(=O)N(C)CC(=O)N[C@@H](CCc3cc(F)c(C(F)(F)F)c(F)c3)C(=O)N2C1 [PP1611]", 28),
    ("CCCN1C(=O)[C@@H]2CCN2C(=O)[C@H](C)N(C)C(=O)[C@H]([C@@H](C)CC)NC(=O)[C@H](CC(C)C)N(C)C(=O)C[C@@H](C(=O)N2CCOCC2)NC(=O)[C@H](C2CCCC2)N(C)C(=O)C2(CCCC2)NC(=O)[C@@H]2CC(F)(F)CN2C(=O)[C@H](CCc2ccc(C(F)(F)F)c(Cl)c2)NC(=O)CN(C)C(=O)[C@@H]1Cc1ccc(C(F)(F)F)cc1 [PP0345] ([NMeL]I[NMeA][Aze][NPrPhe(4-CF3)][Sar][hPhe(3-Cl-4-CF3)][Pro(4,4-F2)][Ac5c][NMeGly(cPent)]D-Morpholide; lactam N-11)", 54.9),
    ("CC[C@H](C)[C@@H]1NC(=O)[C@H](CC(C)C)N(C)C(=O)C[C@@H](C(=O)N2CCOCC2)N(C)C(=O)[C@H](C2CCCC2)N(C)C(=O)C2(CCC2)NC(=O)[C@@H]2C[C@@H](C(F)(F)F)CN2C(=O)[C@H](CCc2cc(F)c(C(F)(F)F)c(F)c2)NC(=O)CN(C)C(=O)[C@H](Cc2ccc(C(F)(F)F)cc2)N2CCCCC[C@@H](C2=O)N(C)C(=O)CN(C)C1=O [PP0818]", 43.7),
]
